Property: TGI; scope: individual compounds
- Tested on: SK-OV-3 ovarian
- assay.remarks: NCI tumour cell line growth inhibition, 48 h

Some solved cases for reference:
QUERY: Please report the recorded TGI for CCOc1ccc(OP2(=O)NC(=O)C=C(C)N2)cc1 (stereo not given) .
RESULT: > 100 µM

QUERY: Please report the recorded TGI for O=C(c1c(F)c(F)c(F)c(F)c1F)n1c(=S)n(C(=O)c2c(F)c(F)c(F)c(F)c2F)c2ccccc21 .
RESULT: > 100 µM

QUERY: Please report the recorded TGI for COc1ccc(OC/C(N)=N/NC(=O)c2ccncc2)cc1 .
RESULT: > 100 µM

QUERY: Please report the recorded TGI for Cc1nc2ccccc2n1Cc1nnc(-c2ccccc2)o1 .
RESULT: > 100 µM

QUERY: Please report the recorded TGI for CC1=N/C(=C\c2ccc(C)cc2)C(=O)O1 .
RESULT: > 100 µM

Continuing:
QUERY: Please report the recorded TGI for NC(Cc1cc(I)c(Oc2ccc(O)c(I)c2)c(I)c1)C(=O)O (stereo not given) .
RESULT: > 100 µM

QUERY: Please report the recorded TGI for CN1CCN(C(=O)/C=C/c2ccc([N+](=O)[O-])o2)CC1 .
RESULT: > 100 µM

QUERY: Please report the recorded TGI for Cc1ccc2c(=O)cc(-c3cc(C)sc3C)[nH]c2n1 .
RESULT: > 82.7 µM

QUERY: Please report the recorded TGI for Cc1[nH]c(=O)c2oc3cc4ccccc4cc3c2c1C(=O)O .
RESULT: > 10 µM

QUERY: Please report the recorded TGI for COc1ccc2cc3n(c(=O)c2c1)CCc1c-3cc(OC)c(OC)c1OC .
RESULT: > 100 µM

QUERY: Please report the recorded TGI for CCCCCCCCCCCCOC1C(C(COC2OC(C(O)CO)C3OC(C)(C)OC23)OC(=O)Nc2ccccc2)OC2OC(C)(C)OC21 (stereo not given) .
RESULT: 30 µM

QUERY: Please report the recorded TGI for Cc1nc2ccc(S(=O)(=O)O)cc2c(=O)n1-c1ccc(C(=O)NN2C(=O)C(Cl)C2c2cccs2)cc1 (stereo not given) .
RESULT: > 100 µM

QUERY: Please report the recorded TGI for CCCCCC(=O)OC[n+]1cccc(-c2c(COC(=O)NC(C)C)c(COC(=O)NC(C)C)c3n2CCC3)c1 .
RESULT: > 100 µM

QUERY: Please report the recorded TGI for CO/C(N)=C(\C#N)N=Cc1ccsc1 .
RESULT: > 100 µM

QUERY: Please report the recorded TGI for CN(/N=C/c1ccccn1)C1=NCCN1 .
RESULT: > 100 µM

QUERY: Please report the recorded TGI for CN(c1ccccc1)c1c2ccccc2nc2[nH]c3ccccc3c12 .
RESULT: 14.1 µM

QUERY: Please report the recorded TGI for O=c1[nH]c2ccccc2c2oc3ccccc3c12 .
RESULT: > 100 µM

QUERY: Please report the recorded TGI for C#CCCCCCC(=O)N[C@H]1C=C[C@@H]2/C=C(C)/C=C/[C@@H](C)[C@H]([C@H](C)[C@H](O)[C@@H](C)NC(C)=O)OC(=O)/C=C/C=C(C)\C=C\[C@]2(C)C1 .
RESULT: > 40 µM

QUERY: Please report the recorded TGI for C=C1CC[C@@H]2[C@](C)(COC(=O)CCC(=O)OC)CCC[C@@]2(C)[C@@H]1CCC1=CC(=O)OC1 .
RESULT: > 100 µM

QUERY: Please report the recorded TGI for O=C1C(Cl)=CC2(C=C1Cl)CCN=c1c(O)c3c(c(O)c12)=NC=N3 .
RESULT: > 100 µM

QUERY: Please report the recorded TGI for CC(C)(C)C1CCC(O)(c2ccccc2)CC1 (stereo not given) .
RESULT: > 100 µM

QUERY: Please report the recorded TGI for CC(C)(CCCCC(C)(C)NC1=NCCO1)NC1=NCCO1 .
RESULT: > 10 µM

QUERY: Please report the recorded TGI for O=C(O)c1ccccc1/C=C1\Cc2cc3c(cc2C1=O)CCC3 .
RESULT: > 100 µM

QUERY: Please report the recorded TGI for O=C(CCN1CCOCC1)Nc1ccc(Cn2nnc3c2C(=O)c2nnn(Cc4ccc(NC(=O)CCN5CCOCC5)cc4)c2C3=O)cc1 .
RESULT: > 100 µM

QUERY: Please report the recorded TGI for CCCCC(C(=O)C(=O)Nc1ccccc1CC)C(=O)C(C)C (stereo not given) .
RESULT: > 100 µM
